- Test system: Vero cells
- ASSAY_SUMMARY: Cytotoxicity test (MTT)
- Assay type: cell-based
- CONDITIONS_USED: Chlorocebus sabaeus; Vero cells, MTT, 48 hours of incubation, highest concentration 64 μg/mL; read-out: IC50
# IC50 listing for each entry below

Recorded results for 5 molecules are shown here.
Returns the measured IC50 for the input molecule. Input: "CC(=O)NC[C@@H]1OC(=O)N2c3cc(F)c(N4CCS(=O)(=O)CC4)cc3OC[C@@H]12"
> 64 µg/mL

Returns the measured IC50 for the input molecule. Input: "O=C(NC[C@@H]1OC(=O)N2c3cc(F)c(N4CCSCC4)cc3OC[C@@H]12)C(F)F"
61.6 µg/mL

Returns the measured IC50 for the input molecule. Input: "O=C1O[C@@H](CNc2ccon2)[C@@H]2COc3cc(N4CCSCC4)c(F)cc3N12"
> 64 µg/mL

Returns the measured IC50 for the input molecule. Input: "CNC[C@@H]1OC(=O)N2c3cc(F)c(N4CCSCC4)cc3OC[C@@H]12"
46.5 µg/mL

Returns the measured IC50 for the input molecule. Input: "O=C1O[C@@H](CNC2COC2)[C@@H]2COc3cc(N4CCSCC4)c(F)cc3N12"
> 64 µg/mL

Next:
Returns the measured IC50 for the input molecule. Input: "O=C(NC[C@@H]1OC(=O)N2c3cc(F)c(N4CC5(COC5)C4)cc3OC[C@@H]12)C1CCC1"
> 64 µg/mL

Origin of measurements: patent US11332477B2
